- study_system: human AMPK (α2β1γ1) (Homo sapiens, UniProt P54619+P54646+Q9Y478)
- Construct: made in house; host or cells: E. coli
- Sequence (P54646 whole entry): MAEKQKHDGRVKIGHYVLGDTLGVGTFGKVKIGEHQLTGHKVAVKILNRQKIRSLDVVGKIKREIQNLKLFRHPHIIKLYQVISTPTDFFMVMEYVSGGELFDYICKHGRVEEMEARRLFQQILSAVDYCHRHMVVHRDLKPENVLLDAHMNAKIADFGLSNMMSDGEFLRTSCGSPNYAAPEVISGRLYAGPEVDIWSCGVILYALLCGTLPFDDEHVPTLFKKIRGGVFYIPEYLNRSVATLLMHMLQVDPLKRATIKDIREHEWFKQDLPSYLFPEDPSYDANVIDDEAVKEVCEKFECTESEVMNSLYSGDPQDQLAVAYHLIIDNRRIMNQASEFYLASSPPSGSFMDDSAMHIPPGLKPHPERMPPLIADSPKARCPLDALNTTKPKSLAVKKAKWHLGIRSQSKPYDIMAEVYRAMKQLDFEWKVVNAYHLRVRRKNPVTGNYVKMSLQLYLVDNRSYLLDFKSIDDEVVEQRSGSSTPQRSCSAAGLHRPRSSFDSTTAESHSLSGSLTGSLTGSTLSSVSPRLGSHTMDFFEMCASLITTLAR
- Sequence (Q9Y478 whole entry): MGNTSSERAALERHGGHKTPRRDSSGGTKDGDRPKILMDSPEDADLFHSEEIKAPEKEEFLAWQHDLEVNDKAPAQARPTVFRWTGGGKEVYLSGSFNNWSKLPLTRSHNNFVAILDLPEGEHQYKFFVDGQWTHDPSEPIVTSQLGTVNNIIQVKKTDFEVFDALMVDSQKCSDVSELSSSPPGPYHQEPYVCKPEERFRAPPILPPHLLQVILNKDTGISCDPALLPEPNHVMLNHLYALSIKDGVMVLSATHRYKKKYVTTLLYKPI
- Sequence (P54619 whole entry): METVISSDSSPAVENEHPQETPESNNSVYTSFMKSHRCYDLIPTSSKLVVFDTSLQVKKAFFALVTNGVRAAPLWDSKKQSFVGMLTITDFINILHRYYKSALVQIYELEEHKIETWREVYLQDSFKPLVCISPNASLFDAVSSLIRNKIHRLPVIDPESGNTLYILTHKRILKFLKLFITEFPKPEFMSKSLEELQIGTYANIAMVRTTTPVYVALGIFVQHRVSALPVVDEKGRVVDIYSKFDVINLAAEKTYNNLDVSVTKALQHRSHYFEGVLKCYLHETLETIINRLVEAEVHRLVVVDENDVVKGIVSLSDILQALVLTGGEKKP
- measurement_description: AMPK (α2β1γ1) activation at molecular level, HTRF KinEASE-STK S1 kinase assay
- Format: biochemical
- condition_set: activation of human AMPK (α2β1γ1), 4 μM ATP, 45 min at 30° C.
For each record, write down the corresponding Activation ratio (Fold).
Output spec: scalar in Fold, unitless text.

State its Activation ratio (Fold) for this compound: O=C(NCc1ccc2c(c1)OCO2)c1ccc(CN2C=C3C(=O)N(c4ccc(F)c(C(F)(F)F)c4)N=C3CC2)cc1 [ZM-12]
3.0

State its Activation ratio (Fold) for this compound: COc1ccc(CNC(=O)c2ccc(CN3C=C4C(=O)N(c5cccc(C(F)(F)F)c5)N=C4CC3)cc2)cc1OC [ZM-16]
3.2

State its Activation ratio (Fold) for this compound: O=C(NCc1ccc(OC(F)F)c(OC(F)F)c1)c1ccc(CN2C=C3C(=O)N(c4ccc(F)c(C(F)(F)F)c4)N=C3CC2)cc1 [ZM-31]
3.1

State its Activation ratio (Fold) for this compound: O=C(NCc1cccc2c1OCO2)c1ccc(CN2C=C3C(=O)N(c4ccc(F)c(C(F)(F)F)c4)N=C3CC2)cc1 [ZM-13]
2.5
